Cited source: paper PMC3306499

# tgt: human A3A (APOBEC3A) (Homo sapiens)
# Sequence (P31941 whole entry): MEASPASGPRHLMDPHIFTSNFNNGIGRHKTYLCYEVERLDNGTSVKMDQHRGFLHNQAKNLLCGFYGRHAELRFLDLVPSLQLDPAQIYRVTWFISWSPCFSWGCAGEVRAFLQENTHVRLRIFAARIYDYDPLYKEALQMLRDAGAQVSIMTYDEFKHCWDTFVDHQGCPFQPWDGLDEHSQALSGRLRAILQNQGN
# method summary: fluorescence-based ssDNA cytosine deaminase assay, A3A
# Assay type: biochemical
Would you mind telling me the reported IC50 of each entry?
Dear colleague, please return just the value in µM, with no unit written.

Item: `Oc1cc(O)cc(/C=C/c2ccc(O)c(O)c2)c1` | IC50: 200

Item: `CN(N=O)c1cc(O)ccc1O` | IC50: 150

* * *

# tgt: UniProtKB Q9HC16
# Sequence (Q9HC16 whole entry): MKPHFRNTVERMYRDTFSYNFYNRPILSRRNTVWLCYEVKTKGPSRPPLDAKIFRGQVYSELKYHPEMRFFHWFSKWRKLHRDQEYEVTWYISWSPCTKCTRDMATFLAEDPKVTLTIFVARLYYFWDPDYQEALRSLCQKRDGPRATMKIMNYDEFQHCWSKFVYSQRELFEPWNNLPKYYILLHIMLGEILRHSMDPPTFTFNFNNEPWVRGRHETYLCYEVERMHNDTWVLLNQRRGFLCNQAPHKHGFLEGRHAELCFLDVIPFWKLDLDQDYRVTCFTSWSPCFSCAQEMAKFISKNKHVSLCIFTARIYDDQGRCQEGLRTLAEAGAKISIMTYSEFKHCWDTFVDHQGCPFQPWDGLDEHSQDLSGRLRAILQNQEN
# method summary: fluorescence-based ssDNA cytosine deaminase assay, A3G
# Format: biochemical
# condition details: read-out: IC50 Values A3G; dose response, purified full-length A3G-mycHis
observable: pIC50
Remember the convention: pIC50 equals -log10 of concentration in molar.

Item: O=C1C=CC(=O)C=C1 [MN4, p-Benzoquinone] | pIC50: 6.77

Item: Br.Oc1ccc(C2CNCc3sccc32)cc1O (stereo not drawn) [MN35, SKF-89626 hydrobromide] | pIC50: 5.89

Item: Cc1nc(N=Nc2cc(S(=O)(=O)O)c3cc([N+](=O)[O-])cc(S(=O)(=O)O)c3c2)c(COP(=O)(O)O)c(C=O)c1O [MN33, PPNDS tetrasodium] | pIC50: 5.25

Item: CC(N)(Cc1ccc(O)c(O)c1)C(=O)O (racemic) [MN28] | pIC50: 4.89

Item: OC[C@H]1O[C@H]([S-])[C@H](O)[C@@H](O)[C@@H]1O.[Au+] [MN26, Aurothioglucose hydrate] | pIC50: 6.44

Item: CC(Cc1ccc(O)c(O)c1)C(C)Cc1ccc(O)c(O)c1 (stereo not drawn) [MN31, Nordihydroguaiaretic acid] | pIC50: 5.06

Item: NC(Cc1cc(O)c(O)cc1O)C(=O)O (racemic) [MN23, 6-Hydroxy-DL-DOPA] | pIC50: 5.40

Item: CN1CCc2cc(O)cc3c2[C@H]1Cc1ccc(O)c(O)c1-3 [MN16] | pIC50: 5.77

* * *

Would you mind telling me the reported IC50 of each entry?
# tgt: HIV-1 RNase H (Human immunodeficiency virus type 1 group M subtype B)
# method summary: HIV-1 RNase H inhibition assay
# Type: biochemical
# condition details: read-out: IC50 Values RNase H; A3G inhibitors, this study

Entry NC1CCc2cc(O)c(O)cc2C1 (racemic) : IC50 on HIV-1 RNase H (Human immunodeficiency virus type 1 group M subtype B) = > 25 µM

Entry `CN(N=O)c1ccc(O)c(O)c1` : IC50 on HIV-1 RNase H (Human immunodeficiency virus type 1 group M subtype B) = > 25 µM

Entry `CN1CCc2cc(O)cc3c2[C@H]1Cc1ccc(O)c(O)c1-3` : IC50 on HIV-1 RNase H (Human immunodeficiency virus type 1 group M subtype B) = > 25 µM

Entry CC(N)(Cc1ccc(O)c(O)c1)C(=O)O (racemic) : IC50 on HIV-1 RNase H (Human immunodeficiency virus type 1 group M subtype B) = > 25 µM

Entry Br.Oc1ccc(C2CNCc3sccc32)cc1O (centres unmarked) [MN35, SKF-89626 hydrobromide] : IC50 on HIV-1 RNase H (Human immunodeficiency virus type 1 group M subtype B) = 2.2 µM

* * *

# tgt: UniProt P31941
# method summary: fluorescence-based ssDNA cytosine deaminase assay, A3A
# Assay type: biochemical
# condition details: read-out: IC50 Values A3A; dose response, purified A3A-mycHis
pIC50: −log10 of the molar value. Structures can show the parent of a compound that is named as a salt.
observable: pIC50

Item: Oc1ccc(Cn2cc[nH]c2=S)cc1 [MN22, 1-(4-Hydroxybenzyl)imidazole-2-thio] | pIC50: < 3.70

Item: Br.Oc1ccc(C2CNCc3sccc32)cc1O (centres unmarked) [MN35, SKF-89626 hydrobromide] | pIC50: < 3.70

Item: Cc1nc(N=Nc2cc(S(=O)(=O)O)c3cc([N+](=O)[O-])cc(S(=O)(=O)O)c3c2)c(COP(=O)(O)O)c(C=O)c1O [MN33, PPNDS tetrasodium] | pIC50: 5.48

Item: `CCCN1CCc2cc(O)cc3c2[C@H]1Cc1ccc(O)c(O)c1-3` | pIC50: < 3.70

Item: CN=c1nc(-c2ccccc2)n(-c2ccccc2)s1 [MN34, SCH-202676 hydrobromide] | pIC50: 3.51

Item: CN[C@@H](C)[C@H](O)c1ccccc1 [MN25, (1R,2S)-(−)-Ephedrine] | pIC50: 4.27

Item: `CN1CCc2cc(O)cc3c2[C@H]1Cc1ccc(O)c(O)c1-3` | pIC50: < 3.70

Item: Oc1cc2c(cc1O)C(c1ccccc1)CNCC2 (racemic) [MN15, (±)-SKF-38393 hydrochloride] | pIC50: < 3.70

Item: NC1CCc2cc(O)c(O)cc2C1 (racemic) | pIC50: < 3.70

Item: OC[C@H]1O[C@H]([S-])[C@H](O)[C@@H](O)[C@@H]1O.[Au+] [MN26, Aurothioglucose hydrate] | pIC50: < 3.70

Item: CC(=O)NCCc1ccc(O)c(O)c1 [MN3, N-Acetyldopamine monohydrate] | pIC50: < 3.70

Item: `O=C(O)c1cc[c]([Hg][Cl])cc1` | pIC50: 6.59

Item: `O=C1C=CC(=O)C=C1` | pIC50: < 3.70

Item: CC(Cc1ccc(O)c(O)c1)C(C)Cc1ccc(O)c(O)c1 (centres unmarked) [MN31, Nordihydroguaiaretic acid] | pIC50: < 3.70

Item: CC(N)(Cc1ccc(O)c(O)c1)C(=O)O (racemic) | pIC50: < 3.70

Item: `CN(N=O)c1ccc(O)c(O)c1` | pIC50: < 3.70

Item: CCCN1CCc2cccc3c2[C@H]1Cc1ccc(O)c(O)c1-3 [MN14, R(−)-Propylnorapomorphine hydrochloride] | pIC50: < 3.70
